Assignment: determine reported inhibition at 10 µM for the given molecules.
- TESTED_TARGET: c-Met kinase (Homo sapiens)
- METHOD_SUMMARY: c-Met kinase assay (ELISA, purified recombinant protein)
- Format: biochemical
- SETTINGS: compound at 10 μM; printed in the c-Met IC50 column; read-out: c-Met inhibition rate @10 μM
Report the value in % with no unit label.

# molecule Nc1nccc(Oc2ccc(NC(=O)C3(Cl)CCCN(c4ccc(F)cc4)C3=O)cc2F)n1 (stereo not drawn) [Compound 19b] ; its inhibition at 10 µM = 52.5

Kindly note the recorded inhibition at 10 µM for NC(=O)c1nccc(Oc2ccc(NC(=O)C3CCCN(c4ccc(F)cc4)C3=O)cc2F)c1Cl (stereo not drawn) [Compound 15a] , which is 63.9

Briefly, inhibition at 10 µM measured for NC(=O)c1nccc(Oc2ccc(NC(=O)C3(Cl)CCCN(c4ccc(F)cc4)C3=O)cc2F)c1Cl (stereo not drawn) [Compound 15b] : 90.2

---

- TESTED_TARGET: c-Met kinase (Homo sapiens, UniProt P08581)
- Sequence (P08581 25-1390): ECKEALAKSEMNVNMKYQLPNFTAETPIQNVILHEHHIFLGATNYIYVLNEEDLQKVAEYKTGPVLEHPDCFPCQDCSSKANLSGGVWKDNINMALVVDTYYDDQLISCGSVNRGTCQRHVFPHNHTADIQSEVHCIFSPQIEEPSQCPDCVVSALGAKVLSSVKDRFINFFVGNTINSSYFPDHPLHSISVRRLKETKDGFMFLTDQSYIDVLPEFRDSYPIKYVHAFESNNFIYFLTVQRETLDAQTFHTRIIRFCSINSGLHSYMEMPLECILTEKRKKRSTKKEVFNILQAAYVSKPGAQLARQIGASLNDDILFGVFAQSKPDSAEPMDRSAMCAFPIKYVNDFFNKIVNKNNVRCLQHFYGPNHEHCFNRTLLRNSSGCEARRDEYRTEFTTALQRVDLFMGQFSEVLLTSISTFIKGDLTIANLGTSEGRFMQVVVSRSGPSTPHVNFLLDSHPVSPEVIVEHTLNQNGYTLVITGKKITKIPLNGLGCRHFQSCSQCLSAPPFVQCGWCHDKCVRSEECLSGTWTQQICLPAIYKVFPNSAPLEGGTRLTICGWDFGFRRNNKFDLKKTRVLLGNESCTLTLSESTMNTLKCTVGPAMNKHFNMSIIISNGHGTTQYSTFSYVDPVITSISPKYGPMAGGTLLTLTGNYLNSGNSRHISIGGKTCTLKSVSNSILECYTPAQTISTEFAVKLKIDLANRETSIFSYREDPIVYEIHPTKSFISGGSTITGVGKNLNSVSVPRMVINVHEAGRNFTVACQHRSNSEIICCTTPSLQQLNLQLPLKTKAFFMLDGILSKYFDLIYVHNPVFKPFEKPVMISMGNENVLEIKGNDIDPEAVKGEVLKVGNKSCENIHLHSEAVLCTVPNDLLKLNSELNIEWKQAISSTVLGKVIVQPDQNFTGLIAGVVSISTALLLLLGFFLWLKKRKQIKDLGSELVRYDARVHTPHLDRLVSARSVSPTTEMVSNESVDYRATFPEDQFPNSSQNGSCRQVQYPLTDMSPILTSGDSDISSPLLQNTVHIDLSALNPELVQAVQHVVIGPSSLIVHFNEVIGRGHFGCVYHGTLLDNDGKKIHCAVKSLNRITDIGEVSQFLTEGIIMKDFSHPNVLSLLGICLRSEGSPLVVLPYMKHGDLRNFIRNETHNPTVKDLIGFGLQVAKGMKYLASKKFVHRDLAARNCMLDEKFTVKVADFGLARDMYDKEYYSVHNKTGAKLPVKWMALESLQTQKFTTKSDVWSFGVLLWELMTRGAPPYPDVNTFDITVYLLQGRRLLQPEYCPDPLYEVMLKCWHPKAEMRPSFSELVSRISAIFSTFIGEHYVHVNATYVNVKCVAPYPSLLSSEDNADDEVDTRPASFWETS
- METHOD_SUMMARY: c-Met kinase assay (ELISA, purified recombinant protein)
- Assay type: biochemical
- SETTINGS: compound at 10 μM; printed in the c-Met IC50 column; read-out: c-Met inhibition rate @10 μM
- Method: The effects of indicated compound on the activities of c-Met kinases were determined using enzyme-linked immunosorbent assays (ELISAs) with purified recombinant proteins. […] The reaction was terminated by the addition of 50 μL of 2 mol/L H2SO4 as the color changed, and the plate was analyzed using a multi-well spectrophotometer (SpectraMAX 190, Molecular Devices, Sunnyvale, CA, USA) at 490 nm. […] The IC50 values were calculated from the inhibition curves in two separate experiments.
For each entry below, report its inhibition at 10 µM value.
Field format: number, assumed %, no unit text.

According to the records, this molecule COc1ccc(CNc2nccc(Oc3ccc(NC(=O)C4CCCN(c5ccc(F)cc5)C4=O)cc3F)n2)cc1 (stereo not shown) [Compound 18a] displays inhibition at 10 µM of 28.4

Just so you know, measured inhibition at 10 µM for COc1cc2nccc(Oc3ccc(NC(=O)C4CCCN(c5ccc(F)cc5)C4=O)cc3F)c2cc1OC (stereo not shown) [Compound 20a] came out at 38.4

So, COc1ccc(CNc2nccc(Oc3ccc(NC(=O)C4(Cl)CCCN(c5ccc(F)cc5)C4=O)cc3F)n2)cc1 (stereo not shown) [Compound 18b] ? Its inhibition at 10 µM was 10

Looking up Nc1nccc(Oc2ccc(NC(=O)C3CCCN(c4ccc(F)cc4)C3=O)cc2F)n1 (stereo not shown) [Compound 19a] , I see its inhibition at 10 µM listed as 59.1

Values were extracted from paper PMC6271681.
